TEST_SYSTEM: T1, human beta CGRP (SEQ ID NO: 81) (human, not fully specified)
T1 construct: also called human βCGRP; hβCGRP
T1 peptide: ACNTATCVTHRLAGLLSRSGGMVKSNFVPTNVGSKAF
ASSAY: SPR, 37 C, mutein captured, CGRP analyte
TEST_READOUT: koff (s⁻¹)
Give a bare numeral; the unit s⁻¹ is implied.

lipocalin mutein SEQ ID NO: 8 (designed binder, biotinylated by NHS chemistry for capture in SPR) QDSTSDLIPAPPLSKVPLQQNFQDNQFHGKWYVVGWAGNTLRREDKNPTKMQATIYELKEDKSYNVTWVYFSEKKCNYHIETSVPGSQPGEFTLGTIKSYPGETSILVRVVSTNYNQHAMVFFKGVSQNREIFEITLYGRTKELTSELKENFIRFSKSLGLPENHIVFPVPIDQCIDGSAWSHPQFEK ... 0.000529
lipocalin mutein SEQ ID NO: 10 (designed binder, biotinylated by NHS chemistry for capture in SPR) QDSTSDLIPAPPLSKVPLQQNFQDNQFHGKWYVVGWAGNTLLREDKNPTKMQATIYELKEDKSYNATWVYLSEKKCNYHIETSVPGSQPGEFTLGTTKSYPGETPILVRVVSTNYNQHAMVFFKGVSQNREIFEITLYGRTKELTSELKENFIRFSKSLGLPENHIVFPVPIDQCIDGSAWSHPQFEK ... 0.000162

Report koff for lipocalin mutein SEQ ID NO: 9 (designed binder, biotinylated by NHS chemistry for capture in SPR) QDSTSDLIPAPPLSKVPLQQNFQDNQFHGKWYVVGWAGNTLLREDKDPIKMQATIYELKEDKSYDVTWVYLSEKKCNYHIETSVPGSQPGEFTLGTIKSYPGETSILVRVVSTNYNQHAMVFFKGMSQNREIFEITLYGRTKELASELKENFIRFSKSLGLPENHIVFPVPIDQCIDGSAWSHPQFEK please.
0.000181

Field entry: lipocalin mutein SEQ ID NO: 7 (designed binder, biotinylated by NHS chemistry for capture in SPR) QDSTSDLIPAPPLSKVPLQQNFQDNQFHGKWYVVGWAGNTLLREDKDPIKMQATIYELKEDKSYNVTWVYFSEKRCNYHIETSVPGSQPGEFTLGTIKSYPGETSILVRVVSTNYNQHAMVFFKGVSQNREIFEITLYGRTKELTSELKENFIRFSKSLGLPENHIVFPVPIDQCIDGSAWSHPQFEK
0.000188

Field entry: lipocalin mutein SEQ ID NO: 17 (designed binder, biotinylated by NHS chemistry for capture in SPR) QDSTSDLIPAPPLSKVPLQQNFQDNQFHGKWYVVGRAGNDVLREDKDPEKMEATIYELKEDKSYNVTDVGFVQKRCMYVTHTFVPGSQPGEFTLGNIESYPGVTSALVRVVSTDYNQHAMVFVKLVKQNRELFEITLYGRTKELTSELKENFIRFSKSLGLPENHIVFPVPIDQCIDGSAWSHPQFEK
1.44e-05
